Test System: human full-length recombinant PKC βII (Homo sapiens)
Construct: Active human full-length recombinant PKC βII; purchased Invitrogen GmbH, Darmstadt, Germany
Sequence (P05771 1-673 isoform P05771-2): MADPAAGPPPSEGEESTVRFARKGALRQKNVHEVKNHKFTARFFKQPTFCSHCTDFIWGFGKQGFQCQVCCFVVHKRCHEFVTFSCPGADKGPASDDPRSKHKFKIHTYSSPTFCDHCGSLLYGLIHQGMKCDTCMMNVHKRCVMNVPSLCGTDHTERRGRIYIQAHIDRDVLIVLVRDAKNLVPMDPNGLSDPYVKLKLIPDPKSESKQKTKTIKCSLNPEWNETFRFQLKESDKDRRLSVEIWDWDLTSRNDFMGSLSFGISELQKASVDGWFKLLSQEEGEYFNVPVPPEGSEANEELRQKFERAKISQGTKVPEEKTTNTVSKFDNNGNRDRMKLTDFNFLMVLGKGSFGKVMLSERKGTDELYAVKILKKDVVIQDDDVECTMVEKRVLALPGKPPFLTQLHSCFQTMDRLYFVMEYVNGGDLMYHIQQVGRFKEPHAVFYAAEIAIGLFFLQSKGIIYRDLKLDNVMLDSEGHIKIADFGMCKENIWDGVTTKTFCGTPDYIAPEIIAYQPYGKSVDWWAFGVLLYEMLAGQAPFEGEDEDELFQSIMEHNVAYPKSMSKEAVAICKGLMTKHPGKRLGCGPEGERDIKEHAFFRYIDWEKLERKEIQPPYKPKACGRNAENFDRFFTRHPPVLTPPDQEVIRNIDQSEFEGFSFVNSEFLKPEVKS
Assay Summary: Determination of PKC βII inhibition (Caliper mobility-shift kinase assay, Fluorescein-RFARKGSLRQKNV peptide substrate)
Type: biochemical
Applied Conditions: example compounds at a final concentration of 1.14 μM (±0.15 μM)
Overview of recorded inhibition at 1.14 µM for various compounds
Reply with just the number (in %).

Example entries begin here.
# Compound, inhibition at 1.14 µM (%)
records = [
    ("Cc1n[nH]c2nc(-c3ccc(O)cc3)cc(C(=O)NC3CCCC(N)C3)c12 (stereo not drawn)", 80),
    ("COC(=O)C1(N)CCN(C(=O)c2cc(-c3ccc(O)cc3)nc3[nH]nc(C)c23)CC1", 45),
    ("CCCc1n[nH]c2nc(-c3ccc(O)cc3)cc(C(=O)N3CCNCC3)c12", 86),
    ("CCC1(NC(=O)c2cc(-c3ccc(O)cc3C)nc3[nH]nc(C)c23)CCCNC1 (stereo not drawn)", 86),
    ("Cc1n[nH]c2nc(-c3ccc(O)cc3F)cc(C(=O)N3CCN[C@H](C)C3)c12", 87),
    ("Cc1n[nH]c2nc(-c3ccc(O)cc3)cc(C(=O)NC(CN)c3ccc(F)cc3)c12 (stereo not drawn)", 83),
]

Record "Cc1n[nH]c2nc(-c3ccc(O)cc3)cc(C(=O)N3CCNCC34Cc3ccccc3C4)c12" ; system human full-length recombinant PKC βII (Homo sapiens); inhibition at 1.14 µM = 72

Record "Cc1n[nH]c2nc(-c3ccc(O)cc3)cc(C(=O)NC3CCNCC3)c12" ; system human full-length recombinant PKC βII (Homo sapiens); inhibition at 1.14 µM = 47

Record "CCc1n[nH]c2nc(-c3ccc(O)cc3)cc(C(=O)N3CC4(CCNCC4)C3)c12" ; system human full-length recombinant PKC βII (Homo sapiens); inhibition at 1.14 µM = 84
